Value source: paper PMC7570544

Quick list: Logk per entry.
Conditions: RP-HPLC, 72:28 MeOH:H2O

O=C(/C=C/c1ccccc1)Nc1ccc(C(F)(F)F)c(F)c1 [Compound 10]	0.5789
O=C(/C=C/c1ccccc1)Nc1cc(F)c(F)c(F)c1 [Compound 3]	0.4893
O=C(/C=C/c1ccccc1)Nc1ccc([N+](=O)[O-])c(C(F)(F)F)c1 [Compound 18]	0.5004

Consider now this further compound.
Note Logk for the compound shown: O=C(/C=C/c1ccccc1)Nc1cc(Cl)c(Cl)cc1Cl [Compound 5] 0.8373

----------
Assay: Lipophilicity determination by RP-TLC
Assay type: physicochemical
Conditions: 72:28 MeOH:NaOAc buffer (pH 7.4)
Observed property: RM (pH 7.4)
Give only the figure.

O=C(/C=C/c1ccccc1)Nc1cc(Cl)c(Cl)cc1Cl [Compound 5]	0.9832
O=C(/C=C/c1ccccc1)Nc1ccc(C(F)(F)F)c(F)c1 [Compound 10]	0.5960
O=C(/C=C/c1ccccc1)Nc1ccc(Cl)cc1C(F)(F)F [Compound 15]	0.3219
O=C(/C=C/c1ccccc1)Nc1ccc(Br)cc1Br [Compound 7]	0.7295
O=C(/C=C/c1ccccc1)Nc1cc(F)c(F)c(F)c1 [Compound 3]	0.5495

For the molecule O=C(/C=C/c1ccccc1)Nc1c(F)cc(F)cc1F [Compound 2] , give its measured RM (pH 7.4) value. 0.1951

Let me know recorded RM (pH 7.4) for O=C(/C=C/c1ccccc1)Nc1ccc([N+](=O)[O-])c(C(F)(F)F)c1 [Compound 18] , thanks. 0.6160

Dear colleague, please send me the reported RM (pH 7.4) for O=C(/C=C/c1ccccc1)Nc1cc(Cl)ccc1F [Compound 8] when you can. 0.5495

For O=C(/C=C/c1ccccc1)Nc1ccc([N+](=O)[O-])cc1C(F)(F)F [Compound 17] , write its RM (pH 7.4). 0.4311

----------
Test: Lipophilicity determination by RP-TLC
Assay type: physicochemical
Conditions: 72:28 MeOH:NaOAc buffer (pH 7.4)
// map RM (pH 7.4) onto a label; ranges band A (below 0.4), band B (0.4 to below 0.6), band C (0.6 or more)

Here are 2 molecules together with their reported answers.
O=C(/C=C/c1ccccc1)Nc1c(Br)cc(C(F)(F)F)cc1Br	band A
O=C(/C=C/c1ccccc1)Nc1ccc(Br)c(Cl)c1	band C

In plain terms, what class is `O=C(/C=C/c1ccccc1)Nc1ccc(F)cc1C(F)(F)F` ? band A

// bin(item) where item = `O=C(/C=C/c1ccccc1)Nc1ccc(Cl)cc1Cl` band B

Class for `O=C(/C=C/c1ccccc1)Nc1ccc(Br)cc1C(F)(F)F` ? band B

----------
Listing of recorded RM (100% MeOH) by entry.
Experiment: Lipophilicity determination by RP-TLC
Type: physicochemical
Conditions: 100% MeOH
Number only, no unit.

O=C(/C=C/c1ccccc1)Nc1ccc([N+](=O)[O-])c(C(F)(F)F)c1 [Compound 18]	−0.4804
O=C(/C=C/c1ccccc1)Nc1ccc(C(F)(F)F)c(F)c1 [Compound 10]	−0.5032
O=C(/C=C/c1ccccc1)Nc1ccc(Br)c(Cl)c1 [Compound 11]	−0.3376
O=C(/C=C/c1ccccc1)Nc1cc(Cl)c(Cl)cc1Cl [Compound 5]	−0.2497
O=C(/C=C/c1ccccc1)Nc1ccc(Cl)cc1C(F)(F)F [Compound 15]	−0.6102
O=C(/C=C/c1ccccc1)Nc1cc(C(F)(F)F)ccc1Br [Compound 13]	−0.4325

Could you please provide reported RM (100% MeOH) for O=C(/C=C/c1ccccc1)Nc1ccc([N+](=O)[O-])cc1C(F)(F)F [Compound 17] ? Thanks! −0.5633

Hello, please tell me recorded RM (100% MeOH) for this one: O=C(/C=C/c1ccccc1)Nc1ccc(Cl)cc1Br [Compound 12] −0.4072

Give the value of RM (100% MeOH) reported for the following: O=C(/C=C/c1ccccc1)Nc1ccc(Br)c(F)c1 [Compound 9] −0.4081
